Every entry's value here was drawn from patent US20160009763A1.

- ASSAY EXPLANATION: Rheological test of hydrogels (angular frequency sweep)
- Assay type: physicochemical
- SETUP CONDITIONS: angular frequency sweep 0.1 to 100 rad/s, strain=0.8%, 25° C.
Non-standard residues stand in square brackets, D forms with d. Residues, ends and D or L forms follow the SMILES beside them. ξ: configuration not given here. *: point of attachment. Phenylacetyl(2,3,4,5,6-F5) = O=C(Cc1c(F)c(F)c(F)c(F)c1F)*; Hydrocinnamoyl = O=C(CCc1ccccc1)*; Ile(3ξ) = CCC(C)[C@H](N)C(=O)O
RESULT TYPE: storage modulus (G′)

Which storage modulus (G′) value belongs to O=C(O)CNC(=O)[C@H](Cc1ccccc1)NC(=O)Cc1c(F)c(F)c(F)c(F)c1F [hydrogel (B), PFB-Phe-Gly] ?
10^4 Pa

Entry CCC(C)[C@H](NC(=O)[C@H](Cc1ccccc1)NC(=O)Cc1c(F)c(F)c(F)c(F)c1F)C(=O)N[C@@H](CCCCN)C(=O)N[C@H](C(=O)N[C@@H](C)C(=O)N[C@H](C(=O)O)C(C)C)C(C)C (stereo partly drawn) [hydrogel (R), PFB-Phe-Ile-Lys-Val-Ala-Val] ({Phenylacetyl(2,3,4,5,6-F5)}-F[Ile(3ξ)]KVAV-OH) : reported storage modulus (G′) = ?
1.0×10^3 Pa

Query: storage modulus (G′); subject: CC(C)C[C@H](NC(=O)Cc1c(F)c(F)c(F)c(F)c1F)C(=O)N[C@@H](Cc1ccccc1)C(=O)O [hydrogel (I), PFB-Leu-Phe]
2×10^3 Pa

Please look up its storage modulus (G′): CCC(C)[C@H](NC(=O)CCc1ccccc1)C(=O)N[C@@H](CCCCN)C(=O)N[C@H](C(=O)N[C@@H](C)C(=O)N[C@H](C(=O)O)C(C)C)C(C)C (some centres unmarked) [hydrogel (Q)] (Hydrocinnamoyl-[Ile(3ξ)]KVAV-OH)
1×10^4 Pa

storage modulus (G′) lookup needed for CC(C)C[C@@H](NC(=O)Cc1c(F)c(F)c(F)c(F)c1F)C(=O)N[C@H](Cc1ccccc1)C(=O)O [hydrogel (J), PFB-D-L-D-F] , thanks.
7×10^2 Pa

* * *

- Tested on: CTX TNA2 cell
- ASSAY EXPLANATION: MTT cell viability assay, CTX TNA2 cell
- Assay type: cell-based
- SETUP CONDITIONS: read-out: IC50 inhibition concentration
RESULT TYPE: IC50

Requested read-out: IC50. Entry: O=C(Cc1c(F)c(F)c(F)c(F)c1F)N[C@@H](Cc1ccc(O)cc1)C(=O)N[C@@H](Cc1ccccc1)C(=O)O [hydrogel (C), PFB-Tyr-Phe]
> 500 µM

* * *

- System: MCF-7 cell
- ASSAY EXPLANATION: MTT cell viability assay, MCF-7 cell
- Assay type: cell-based
- SETUP CONDITIONS: Homo sapiens, MCF7, read-out: IC50 inhibition concentration
RESULT TYPE: IC50

Lab request: please report IC50 under test system MCF-7 cell for O=C(Cc1c(F)c(F)c(F)c(F)c1F)N[C@@H](Cc1ccc(O)cc1)C(=O)N[C@@H](Cc1ccccc1)C(=O)O [hydrogel (C), PFB-Tyr-Phe]
> 500 µM

* * *

- ASSAY EXPLANATION: MTT cell viability assay, MCF-7 cell
- Type: cell-based
- SETUP CONDITIONS: human, MCF-7 cells, hydrogel up to 500 μM
RESULT TYPE: viability

Please report the recorded viability for O=C(Cc1c(F)c(F)c(F)c(F)c1F)N[C@@H](Cc1ccc(O)cc1)C(=O)N[C@@H](Cc1ccccc1)C(=O)O [hydrogel (C), PFB-Tyr-Phe] .
~100%
